# run_description: protein stability index of a GFP-peptide fusion (yeast GPS) (PSI 1-4); higher = more stable; sorted into four equal gates, so the index is relative within each strain
# stated_conditions: ubr1∆
# protein stability index annotations
Note: the reply should be a number with no unit written.

Consider the reported protein stability index for these sequences:
LSEFGIKKMLHLVWMKG [YCS4]
3.29
RPHQSRESLIMLLEEQL [MED7]
2.12
NAQQTFHIDHTKPSDLT [RPO21]
2.82
LISRLCPNSTGAELRSV [RPT1]
1.73

Request: Endpoint output: protein stability index of VHKLRHYLVNLTSPAFG [GRR1] . Value?
Result: 1.21

Request: What does the data say about its protein stability index? Entry: WVQLVQIIVTDGKLEPS [YJL039C/NUP192]
Result: 1.27

Request: Need protein stability index of QLPVGFKNMGNTCYLNA [UBP6] , thanks.
Result: 1.6

Request: State the recorded protein stability index for this entry: QNSYADKVTSQAVNNLI [RPP1]
Result: 2.11

Request: Any idea what protein stability index was measured for SLTTVWAEHLSDEVKRR [RPL3] ?
Result: 3

Request: # get_value(readout='protein stability index', item= NRRLFKKCIDFFEMLIS [RRI2] )
Result: 2.02

Request: What value of protein stability index has been reported for the following sequence? NVNLDDYPDDSGWTPFH [NAS6]
Result: 2.96

Request: GET /values?readout=protein stability index&item= LQLSKTPLSIKIMVAEW [SRB8]
Result: 3

Request: Tell me the measured protein stability index of IVNGQTFSYVDSSLQPE [YMR129W/POM152] , please.
Result: 2.06

Request: // returns reported protein stability index for input GSGAANENPYNNGVSNL [COR1]
Result: 2.79

Reference for the values: the supplement of paper PMC9732359
